# credit: patent US20250312444A1

experimental_system: T1, rat serum albumin (rat)
T1 chain: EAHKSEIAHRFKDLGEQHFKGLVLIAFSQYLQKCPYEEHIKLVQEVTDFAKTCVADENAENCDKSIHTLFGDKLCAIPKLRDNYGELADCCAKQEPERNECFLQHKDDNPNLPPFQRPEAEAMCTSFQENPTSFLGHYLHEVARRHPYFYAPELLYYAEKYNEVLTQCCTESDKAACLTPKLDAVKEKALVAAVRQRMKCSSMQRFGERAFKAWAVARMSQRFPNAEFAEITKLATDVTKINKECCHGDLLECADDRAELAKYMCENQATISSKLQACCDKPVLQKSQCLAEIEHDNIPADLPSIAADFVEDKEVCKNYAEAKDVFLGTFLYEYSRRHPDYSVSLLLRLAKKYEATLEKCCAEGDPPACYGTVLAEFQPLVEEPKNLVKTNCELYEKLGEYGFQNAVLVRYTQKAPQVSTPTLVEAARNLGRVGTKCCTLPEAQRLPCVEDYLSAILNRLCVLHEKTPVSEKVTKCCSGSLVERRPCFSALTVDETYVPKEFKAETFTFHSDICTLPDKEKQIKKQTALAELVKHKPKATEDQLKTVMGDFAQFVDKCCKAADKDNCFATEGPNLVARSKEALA
assay_name: SPR Biacore T200, fusion protein captured by anti-VHH antibody, albumin as analyte
// reported pKd per item
Here pKd is given on a logarithmic scale as minus log10 of the concentration in mol/L.

>  <binder>
0064 (other, Single-chain fusion: anti-HSA VHH, linker, relaxin-2 B chain, linker, relaxin-2 A chain; also called fusion protein 0064) EVQLLESGGGLVQPGGSLRLSCAASGNTYLTSCMGWFRQAPGKEREGVSSIYTVGGSTFYTNSVKGRFTISRDNSKNTLYLQMNSLQPEDTAVYYCAAGSPARCRLRDPTTFDYWGQGTLVTVSSGGGGQGGGGQGGGGQGGGGQGGGGQSWMEEVIKLCGRELVRAQIAICGMSTWSGGGSGGSGGGQLYSALANKCCHVGCTKRSLARFC

>  <reported_measurement>
7.23

$$$$

// below: pKd requested for another binder
Quick one: pKd of 0054 (other, also called positive control 0054; positive control molecule 0054) EVQLLESGGGLVQPGGSLRLSCAASGRYIDETAVAWFRQAPGKGREFVAGIGGGVDITYYADSVKGRFTISRDNSKNTLYLQMNSLRPEDTAVYYCAARPGRPLITSKVADLYPYWGQGTLVTVSSGGGGQGGGGQGGGGQGGGGQGGGGQSWMEEVIKLCGRELVRAQIAICGMSTWSGGGSGGSGGGQLYSALANKCCHVGCTKRSLARFC ?
6.74
